# IC50 per record follows
System: DU145 cells
Test: CCK-8 in vitro cytotoxicity assay, DU145
Type: cell-based
Settings: DU-145; human prostate cancer cell line DU145, CCK-8, 24 h exposure, mean ± SD of three experiments

Please review the entries below; each comes with its answer.
{"Molecule": "COc1ccccc1N1CCN(CC(O)COc2cccc3ccccc23)CC1 (stereo not drawn) [naftopidil, reference compound]", "IC50": "34.6 µM"}
{"Molecule": "CC(=O)c1ccc(N2CCN(CCc3ccc(COc4ccc5c(c4)OCO5)cc3)CC2)cc1 [Compound 27]", "IC50": "> 50 µM"}

Q: I have this molecule here, FC(F)(F)c1ccccc1N1CCN(CCc2ccc(COc3ccc4c(c3)OCO4)cc2)CC1 [Compound 25] , and I need its recorded IC50.
A: > 50 µM

Q: c1ccc(N2CCN(CCc3ccc(COc4ccc5c(c4)OCO5)cc3)CC2)cc1 [Compound 5] , same question.
A: > 50 µM

Q: c1cnc(N2CCN(CCc3ccc(COc4ccc5c(c4)OCO5)cc3)CC2)nc1 [Compound 8] , same question.
A: 8.25 µM

Q: Cc1ccc(N2CCN(CCc3ccc(COc4ccc5c(c4)OCO5)cc3)CC2)cc1 [Compound 10] , same question.
A: 47.8 µM

Q: Clc1ccc(N2CCN(CCc3ccc(COc4ccc5c(c4)OCO5)cc3)CC2)cc1 [Compound 20] , same question.
A: > 50 µM

Q: FC(F)(F)c1ccc(N2CCN(CCc3ccc(COc4ccc5c(c4)OCO5)cc3)CC2)cc1 [Compound 26] , same question.
A: > 50 µM

Q: COc1ccc(Cl)cc1N1CCN(CCc2ccc(COc3ccc4c(c3)OCO4)cc2)CC1 [Compound 23] , same question.
A: > 50 µM
